Biological target: T1, recombinant BACE1 (BACE1 extracellular domain, R&D Systems Cat#931-AS) (UniProt P56817 22-457)
T1 construct: extracellular domain; also called BACE1 extracellular domain protein
T1 sequence (P56817 22-457): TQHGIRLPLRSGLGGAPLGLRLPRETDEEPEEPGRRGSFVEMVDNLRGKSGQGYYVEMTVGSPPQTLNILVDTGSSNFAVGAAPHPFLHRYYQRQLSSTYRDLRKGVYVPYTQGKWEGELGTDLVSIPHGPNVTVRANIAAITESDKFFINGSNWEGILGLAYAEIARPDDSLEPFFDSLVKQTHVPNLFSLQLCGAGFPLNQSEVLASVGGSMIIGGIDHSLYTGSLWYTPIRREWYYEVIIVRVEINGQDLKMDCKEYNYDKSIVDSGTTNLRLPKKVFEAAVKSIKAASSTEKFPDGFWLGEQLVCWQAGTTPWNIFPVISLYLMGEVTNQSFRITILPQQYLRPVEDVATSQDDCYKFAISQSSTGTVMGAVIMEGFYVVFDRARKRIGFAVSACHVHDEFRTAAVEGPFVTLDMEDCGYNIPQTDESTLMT
Test: SPR Biacore
Examples of binders with documented pKd follow.
Please express pKd as -log10 of the molar concentration.

| binder | measurement.name | reported.measurement |
| --- | --- | --- |
| hu2H8v3 (antibody, V domains shown, humanized; also called hu2H8_HC3 + hu2H8_LC1) VH: QVQLVQSGAEVKKPGASVKVSCKASGYTFTNFWIHWLRQAPGQGLEWMGMIDPSDSYTKYNQKFKARVTMTVDTSTSTTYMELSSLRSEDTAVYYCARSGVAFPYWGQGTLVTVSS VL: DIQMTQSPSSLSASVGDRVTITCKASQDVGRNVAWYQQKPGKAPKLLIYSASHRYSGVPSRFSGSGSGTDFTLTISSLQPEDFATYYCQQYNSYPYTFGQGTKVEIK | pKd | 6.76 |

Alright, here's another binder for you.
Task: Supply measured pKd of hu2H8v15 (antibody, V domains shown, humanized; also called hu2H8_HC3 + hu2H8_LC3) VH: QVQLVQSGAEVKKPGASVKVSCKASGYTFTNFWIHWLRQAPGQGLEWMGMIDPSDSYTKYNQKFKARVTMTVDTSTSTTYMELSSLRSEDTAVYYCARSGVAFPYWGQGTLVTVSS VL: DIQMTQSPSSLSASVGDRVTITCKASQDVGRNVAWYQQKPGKAPKSLIYSASHRYSGVPSRFSGSGSGTDFTLTISSLQPEDFATYYCQQYNSYPYTFGQGTKVEIK in your reply.
Output: 7.79
